assay.explanation: Binding affinity to Mg2+ ion in HEPES buffer at pH 7.2
Type: physicochemical
Label key: condition met means Ka under 5 ×10⁵ /M; condition not met means Ka of 5 ×10⁵ /M or more.

[[record]]
line_notation = "CN1C(=O)C(=CNCc2ccccn2)C(=O)N(C)C1=O"
assigned_category = "condition met"

[[record]]
line_notation = "COc1ccccc1NC=C1C(=O)N(C)C(=O)N(C)C1=O"
assigned_category = "condition not met"

[[record]]
line_notation = "CN1C(=O)C(=C(/C=C/c2ccccc2)NCCNC(/C=C/c2ccccc2)=C2C(=O)N(C)C(=O)N(C)C2=O)C(=O)N(C)C1=O"
assigned_category = "condition not met"

[[record]]
line_notation = "CN1C(=O)C(=CNc2cccc(N)n2)C(=O)N(C)C1=O"
assigned_category = "condition met"

[[record]]
line_notation = "CN1C(=O)C(=CNc2ccccc2N)C(=O)N(C)C1=O"
assigned_category = "condition not met"

[[record]]
line_notation = "CN1C(=O)C(=CNc2ccccc2[N+](=O)[O-])C(=O)N(C)C1=O"
assigned_category = "condition met"

[[record]]
line_notation = "CN1C(=O)C(=CNc2cc(C(=O)O)ccc2C(=O)O)C(=O)N(C)C1=O"
assigned_category = "condition not met"

[[record]]
line_notation = "CN1C(=O)C(=CNCCNC=C2C(=O)N(C)C(=O)N(C)C2=O)C(=O)N(C)C1=O"
assigned_category = "condition not met"

[[record]]
line_notation = "CN1C(=O)C(=CNc2ccccc2O)C(=O)N(C)C1=O"
assigned_category = "condition not met"

[[record]]
line_notation = "CN1C(=O)C(=C(/C=C/c2ccccc2)NNC(/C=C/c2ccccc2)=C2C(=O)N(C)C(=O)N(C)C2=O)C(=O)N(C)C1=O"
assigned_category = "condition met"

